Ref: paper PMC10254233

We begin with a simple list: items and their reported chromatographic logD.
experiment: physchem; conditions: pH 7.4
EXPERIMENTAL_READOUT: chromatographic logD

CC(C)(C)c1cc(C=C2CCOC2=O)cc(C(C)(C)C)c1O: 3.79
CC(C)(C)c1cc(C(=O)c2cccs2)cc(C(C)(C)C)c1O: 3.91
CON1CCC(=Cc2cc(C(C)(C)C)c(O)c(C(C)(C)C)c2)C1=O: 3.35
CCN1CC/C(=C\c2cc(C(C)(C)C)c(O)c(C(C)(C)C)c2)S1(=O)=O: 3.75

---

tested on: A375 melanoma; assay: Cell viability, MTT assay, A375; type: cell-based, human; conditions: Homo sapiens, A-375; 72 h, mean ± SD
pIC50: −log10 of the molar value.
EXPERIMENTAL_READOUT: pIC50

CON1CCC(=Cc2cc(C(C)(C)C)c(O)c(C(C)(C)C)c2)C1=O: 4.89
CC(C)(C)c1cc(C(=O)c2cccs2)cc(C(C)(C)C)c1O: 4.78
CC(C)(C)c1cc(C=C2CCOC2=O)cc(C(C)(C)C)c1O: 4.86
CCN1CC/C(=C\c2cc(C(C)(C)C)c(O)c(C(C)(C)C)c2)S1(=O)=O: 4.88
